# Organism: Rattus norvegicus
# assay: Open TG-GATES - Regimen: Daily Repeat
# Format: toxicity, organism-based, Sprague-Dawley
# Set-up: regimen Daily Repeat, gender Male, age 6 weeks
# conditions used: in vivo, po, 1000 mg/kg, 72 h, tissue Blood, route gavage, dose level High, time 3 day
reported endpoint: Bas

[[record]]
molecule = "NC(N)=Nc1nc(CSCCC(N)=NS(N)(=O)=O)cs1"
result = "0%"

[[record]]
molecule = "COc1ccc2[nH]c([S+]([O-])Cc3ncc(C)c(OC)c3C)nc2c1 (stereo unspecified)"
result = "0%"

[[record]]
molecule = "CCOC(=O)CCC(=O)O[C@H]1[C@H](O[C@@H]2[C@@H](C)[C@H](O[C@H]3C[C@@](C)(OC)[C@@H](O)[C@H](C)O3)[C@@H](C)C(=O)O[C@H](CC)[C@@](C)(O)[C@H](O)[C@@H](C)C(=O)[C@H](C)C[C@@]2(C)O)O[C@H](C)C[C@@H]1N(C)C [ERYTHROMYCIN ETHYLSUCCINATE]"
result = "0%"

[[record]]
molecule = "CC(C)OC(=O)C(C)(C)Oc1ccc(C(=O)c2ccc(Cl)cc2)cc1 [FENOFIBRATE]"
result = "0.4%"

[[record]]
molecule = "CCOc1ccc(NC(=O)CC(C)O)cc1 (stereo unspecified)"
result = "0%"

[[record]]
molecule = "COC1=CC(=O)C[C@@H](C)[C@]12Oc1c(Cl)c(OC)cc(OC)c1C2=O"
result = "0%"

